Numbers sourced from patent US20240124412A1.

target_of_assay: IKZF2 (Homo sapiens, UniProt Q96SW2+Q9UKS7)
Construct: expressed in transfected cells
Sequence (Q9UKS7 1-500 isoform Q9UKS7-2): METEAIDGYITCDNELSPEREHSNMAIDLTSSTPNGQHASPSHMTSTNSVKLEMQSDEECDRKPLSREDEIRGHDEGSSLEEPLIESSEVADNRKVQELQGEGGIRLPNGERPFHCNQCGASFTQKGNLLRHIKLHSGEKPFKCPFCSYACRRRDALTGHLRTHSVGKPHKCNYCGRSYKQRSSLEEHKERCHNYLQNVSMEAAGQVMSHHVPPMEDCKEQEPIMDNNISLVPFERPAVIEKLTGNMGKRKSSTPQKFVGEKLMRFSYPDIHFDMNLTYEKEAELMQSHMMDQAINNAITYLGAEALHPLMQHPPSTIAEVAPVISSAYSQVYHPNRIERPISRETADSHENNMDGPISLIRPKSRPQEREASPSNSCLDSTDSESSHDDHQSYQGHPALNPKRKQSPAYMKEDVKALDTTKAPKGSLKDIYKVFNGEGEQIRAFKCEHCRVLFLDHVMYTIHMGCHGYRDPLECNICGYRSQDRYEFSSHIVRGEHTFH
Sequence (Q96SW2 whole entry): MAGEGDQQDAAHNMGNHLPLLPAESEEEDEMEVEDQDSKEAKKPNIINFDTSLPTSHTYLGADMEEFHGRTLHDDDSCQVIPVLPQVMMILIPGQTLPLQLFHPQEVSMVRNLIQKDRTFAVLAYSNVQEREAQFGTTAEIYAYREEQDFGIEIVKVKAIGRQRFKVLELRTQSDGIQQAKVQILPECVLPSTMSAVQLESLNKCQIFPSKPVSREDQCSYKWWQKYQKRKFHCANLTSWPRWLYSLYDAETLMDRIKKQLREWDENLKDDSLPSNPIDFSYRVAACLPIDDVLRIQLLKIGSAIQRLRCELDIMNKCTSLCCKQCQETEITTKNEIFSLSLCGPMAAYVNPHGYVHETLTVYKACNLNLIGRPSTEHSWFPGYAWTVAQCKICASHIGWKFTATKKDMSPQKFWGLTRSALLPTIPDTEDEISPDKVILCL
Sequence (Q16531 whole entry partner): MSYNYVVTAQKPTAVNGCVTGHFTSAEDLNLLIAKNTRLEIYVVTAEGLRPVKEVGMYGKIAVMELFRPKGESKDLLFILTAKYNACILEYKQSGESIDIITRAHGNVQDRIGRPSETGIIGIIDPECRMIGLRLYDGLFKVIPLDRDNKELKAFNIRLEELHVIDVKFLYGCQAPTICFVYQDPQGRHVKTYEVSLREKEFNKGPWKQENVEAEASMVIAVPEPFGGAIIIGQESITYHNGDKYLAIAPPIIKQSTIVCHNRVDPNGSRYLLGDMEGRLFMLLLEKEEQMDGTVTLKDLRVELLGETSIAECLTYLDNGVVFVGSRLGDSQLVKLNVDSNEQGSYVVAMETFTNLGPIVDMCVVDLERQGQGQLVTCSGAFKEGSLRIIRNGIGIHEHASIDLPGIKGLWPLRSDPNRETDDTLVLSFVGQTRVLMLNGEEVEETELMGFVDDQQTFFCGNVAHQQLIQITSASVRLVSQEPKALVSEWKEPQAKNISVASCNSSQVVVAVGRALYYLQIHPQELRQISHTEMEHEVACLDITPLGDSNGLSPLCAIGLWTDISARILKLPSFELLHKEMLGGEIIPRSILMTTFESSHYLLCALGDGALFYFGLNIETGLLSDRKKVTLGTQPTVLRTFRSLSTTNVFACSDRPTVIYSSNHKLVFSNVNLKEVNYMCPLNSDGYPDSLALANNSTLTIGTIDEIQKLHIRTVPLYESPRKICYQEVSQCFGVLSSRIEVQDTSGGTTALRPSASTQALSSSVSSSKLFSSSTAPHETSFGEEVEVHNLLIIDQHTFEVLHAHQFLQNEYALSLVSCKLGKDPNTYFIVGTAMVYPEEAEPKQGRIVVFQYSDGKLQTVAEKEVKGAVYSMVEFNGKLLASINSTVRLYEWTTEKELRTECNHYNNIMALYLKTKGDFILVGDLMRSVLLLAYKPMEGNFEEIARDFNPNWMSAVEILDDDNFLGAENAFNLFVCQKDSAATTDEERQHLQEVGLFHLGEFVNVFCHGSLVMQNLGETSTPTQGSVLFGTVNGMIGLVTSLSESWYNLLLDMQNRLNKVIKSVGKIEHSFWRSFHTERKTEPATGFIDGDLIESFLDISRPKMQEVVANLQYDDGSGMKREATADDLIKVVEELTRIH
run_description: HiBiT protein tagging assay, in vitro IKZF2 degradation (HEK293)
Format: cell-based
measurement_setup: HiBiT assay, HEK293, 18-24 hr incubation, normalized to DMSO control; read-out: IKZF2 EC50
Protocol: In vitro degradation of IKZF1 and IKZF2 was measured using HiBiT protein tagging and detection technology (Promega). HiBiT technology (Promega) was used to develop the quantitative assays to measure the cellular IKZFs level by tagging an 11 amino acid HiBit peptides VSGWRLFKKIS (SEQ ID NO:1) to the protein of interest. Reporter plasmids were generated by fusing a linker sequence (GSSGGSSG; SEQ ID NO:2) followed by the HiBiT tag at the C terminus of IKZF1 and IKZF2. […]
Give measured DC50 for each item. Keep answers brief.
Expressed in nM, but write only the number.

Request the reported DC50 associated with O=C1CCC(N2Cc3cc(CNC4CCN(c5cccnc5)CC4)ccc3C2=O)C(=O)N1 (centres unmarked)
588

Request the reported DC50 associated with O=C1CCC(N2Cc3cc(CN[C@H]4CC[C@@H](C(F)(F)F)CC4)ccc3C2=O)C(=O)N1 (some centres unmarked)
114

Request the reported DC50 associated with C[C@@]1(NCc2ccc3c(c2)CN(C2CCC(=O)NC2=O)C3=O)CCCN(Cc2ccccc2)C1 (some centres unmarked)
35

Request the reported DC50 associated with N#CC[C@H]1CC[C@H](NCc2ccc3c(c2)CN(C2CCC(=O)NC2=O)C3=O)CC1 (some centres unmarked)
361

Request the reported DC50 associated with COC(=O)C1(C)CCCC(NCc2ccc3c(c2)CN(C2CCC(=O)NC2=O)C3=O)C1 (centres unmarked)
97

Request the reported DC50 associated with O=C1CCC(N2Cc3cc(CN[C@H]4CCC[C@H](Cc5ccccc5)C4)ccc3C2=O)C(=O)N1 (relative stereo)
81

Request the reported DC50 associated with CC1(NCc2ccc3c(c2)CN(C2CCC(=O)NC2=O)C3=O)CCCCC1 (centres unmarked)
49

Request the reported DC50 associated with O=C1CCC(N2Cc3cc(CNC4CC5CCC4C5)ccc3C2=O)C(=O)N1 (centres unmarked)
193

====

Give measured log10 of DC50 for each item. Keep answers brief.
target_of_assay: IKZF1 (Homo sapiens, UniProt Q13422+Q96SW2)
Construct: expressed in transfected cells
Sequence (Q13422 whole entry, one chain of several): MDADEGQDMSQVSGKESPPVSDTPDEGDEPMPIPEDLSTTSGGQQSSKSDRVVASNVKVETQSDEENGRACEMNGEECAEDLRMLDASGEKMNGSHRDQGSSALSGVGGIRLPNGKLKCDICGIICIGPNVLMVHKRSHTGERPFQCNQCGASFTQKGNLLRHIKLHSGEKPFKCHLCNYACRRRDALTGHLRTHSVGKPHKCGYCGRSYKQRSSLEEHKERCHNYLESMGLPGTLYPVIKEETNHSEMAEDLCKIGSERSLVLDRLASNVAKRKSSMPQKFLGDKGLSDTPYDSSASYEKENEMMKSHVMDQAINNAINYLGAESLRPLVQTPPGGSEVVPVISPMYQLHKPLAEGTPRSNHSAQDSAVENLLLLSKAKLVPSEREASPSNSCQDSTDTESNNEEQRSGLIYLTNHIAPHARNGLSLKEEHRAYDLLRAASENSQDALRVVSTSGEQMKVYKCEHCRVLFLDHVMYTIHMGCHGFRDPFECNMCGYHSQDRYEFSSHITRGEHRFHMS
run_description: HiBiT protein tagging assay, in vitro IKZF1 degradation (HEK293)
Format: cell-based
measurement_setup: HEK293, 18-24 hr incubation, normalized to DMSO control, read-out: IKZF1 EC50
In plain terms, each number is the log10 of measured DC50 in nM.

Request the reported log10 of DC50 associated with C[C@@H]1CCCC[C@H]1NCc1ccc2c(c1)CN(C1CCC(=O)NC1=O)C2=O (some centres unmarked)
2.03

Request the reported log10 of DC50 associated with O=C1CCC(N2Cc3cc(CN[C@H]4CC[C@@H](c5ccccc5)CC4)ccc3C2=O)C(=O)N1 (some centres unmarked)
0.48

Request the reported log10 of DC50 associated with N#C[C@H]1CC[C@@H](NCc2ccc3c(c2)CN(C2CCC(=O)NC2=O)C3=O)CC1 (some centres unmarked)
1.92

Request the reported log10 of DC50 associated with O=C1CCC(N2Cc3cc(CN[C@@H]4CCCN(C(=O)c5ccccc5)C4)ccc3C2=O)C(=O)N1 (some centres unmarked)
2.94

Request the reported log10 of DC50 associated with NC(=O)C1CCCC(NCc2ccc3c(c2)CN(C2CCC(=O)NC2=O)C3=O)C1 (centres unmarked)
3.58

Request the reported log10 of DC50 associated with C[C@H]1CC[C@@H](NCc2ccc3c(c2)CN(C2CCC(=O)NC2=O)C3=O)CC1 (some centres unmarked)
2.10

Request the reported log10 of DC50 associated with O=C1CCC(N2Cc3cc(CNC4CC(c5ccccc5)CN(Cc5ccccc5)C4)ccc3C2=O)C(=O)N1 (centres unmarked)
1.65

Request the reported log10 of DC50 associated with O=C1CCC(N2Cc3cc(CN[C@H]4CCC[C@@H](O)C4)ccc3C2=O)C(=O)N1 (some centres unmarked)
2.88

====

target_of_assay: IKZF2 (Homo sapiens, UniProt Q96SW2+Q9UKS7)
Construct: expressed in transfected cells
run_description: HiBiT protein tagging assay, in vitro IKZF2 degradation (HEK293)
Assay type: cell-based
measurement_setup: HEK293, HiBiT assay, HEK293, 18-24 hr incubation, normalized to DMSO control; read-out: IKZF2 Dmax (maximum degradation at the highest concentration tested)
quantity_name: Dmax
Mention the unit after the number when you answer.

Under IKZF2 (Homo sapiens, UniProt Q96SW2+Q9UKS7): Dmax value of CCCC[C@H]1CC[C@H](NCc2ccc3c(c2)CN(C2CCC(=O)NC2=O)C3=O)CC1 (some centres unmarked) [Example 79] ?
69%

Under IKZF2 (Homo sapiens, UniProt Q96SW2+Q9UKS7): Dmax value of CO[C@@H]1CCCC[C@@H]1NCc1ccc2c(c1)CN(C1CCC(=O)NC1=O)C2=O (some centres unmarked) [Example 108] ?
96%

Under IKZF2 (Homo sapiens, UniProt Q96SW2+Q9UKS7): Dmax value of O=C1CCC(N2Cc3cc(CN[C@@H]4CCCC[C@H]4CO)ccc3C2=O)C(=O)N1 (some centres unmarked) [Example 73] ?
31%

Under IKZF2 (Homo sapiens, UniProt Q96SW2+Q9UKS7): Dmax value of O=C1CCC(N2Cc3cc(CNC4CCC(Oc5ccccc5)CC4)ccc3C2=O)C(=O)N1 (centres unmarked) [Example 104] ?
72%

Under IKZF2 (Homo sapiens, UniProt Q96SW2+Q9UKS7): Dmax value of O=C1CCC(N2Cc3cc(CN[C@@H]4CCC[C@H](C(=O)c5ccccc5)C4)ccc3C2=O)C(=O)N1 (some centres unmarked) [Example 129] ?
60%

Under IKZF2 (Homo sapiens, UniProt Q96SW2+Q9UKS7): Dmax value of O=C1CCC(N2Cc3cc(CNC4CCN(C(=O)NCc5ccccc5)CC4)ccc3C2=O)C(=O)N1 (centres unmarked) [Example 4] ?
95%

Under IKZF2 (Homo sapiens, UniProt Q96SW2+Q9UKS7): Dmax value of O=C1CCC(N2Cc3cc(CNCC4CCc5ccccc5C4)ccc3C2=O)C(=O)N1 (centres unmarked) [Example 23] ?
49%

Under IKZF2 (Homo sapiens, UniProt Q96SW2+Q9UKS7): Dmax value of O=C1CCC(N2Cc3cc(CNC4CC5CNC4C5)ccc3C2=O)C(=O)N1 (centres unmarked) [Example 98] ?
39%

Under IKZF2 (Homo sapiens, UniProt Q96SW2+Q9UKS7): Dmax value of CC(C)NCc1ccc2c(c1)CN(C1CCC(=O)NC1=O)C2=O (centres unmarked) [Example 9] ?
48%

Under IKZF2 (Homo sapiens, UniProt Q96SW2+Q9UKS7): Dmax value of CC[C@@H]1CCCC[C@H]1NCc1ccc2c(c1)CN(C1CCC(=O)NC1=O)C2=O (some centres unmarked) [Example 149] ?
35%

Under IKZF2 (Homo sapiens, UniProt Q96SW2+Q9UKS7): Dmax value of CCN1CCC(NCc2ccc3c(c2)CN(C2CCC(=O)NC2=O)C3=O)CC1 (centres unmarked) [Example 48] ?
32%

Under IKZF2 (Homo sapiens, UniProt Q96SW2+Q9UKS7): Dmax value of O=C1CCC(N2Cc3cc(CNC4CCC5(CCCC5)CC4)ccc3C2=O)C(=O)N1 (centres unmarked) [Example 84] ?
79%

Under IKZF2 (Homo sapiens, UniProt Q96SW2+Q9UKS7): Dmax value of O=C1CCC(N2Cc3cc(CN[C@H]4CCC[C@@H](Cc5ccccc5)C4)ccc3C2=O)C(=O)N1 (some centres unmarked) [Example 116] ?
81%

Under IKZF2 (Homo sapiens, UniProt Q96SW2+Q9UKS7): Dmax value of O=C1CCC(N2Cc3cc(CN[C@H](CO)c4ccccc4)ccc3C2=O)C(=O)N1 (some centres unmarked) [Example 52] ?
22%

Under IKZF2 (Homo sapiens, UniProt Q96SW2+Q9UKS7): Dmax value of CC[C@H]1CCCC[C@H]1NCc1ccc2c(c1)CN(C1CCC(=O)NC1=O)C2=O (some centres unmarked) [Example 148] ?
43%

Under IKZF2 (Homo sapiens, UniProt Q96SW2+Q9UKS7): Dmax value of O=C1CCC(N2Cc3cc(CNC4CCN(C(=O)OCc5ccccc5)CC4)ccc3C2=O)C(=O)N1 (centres unmarked) [Example 3] ?
94%

Under IKZF2 (Homo sapiens, UniProt Q96SW2+Q9UKS7): Dmax value of C[C@@H]1[C@@H](NCc2ccc3c(c2)CN(C2CCC(=O)NC2=O)C3=O)C[C@H]2C[C@@H]1C2(C)C (some centres unmarked) [Example 134] ?
89%

====

target_of_assay: IKZF2 (Homo sapiens, UniProt Q96SW2+Q9UKS7)
Construct: expressed in transfected cells
run_description: HiBiT protein tagging assay, in vitro IKZF2 degradation (HEK293)
Assay type: cell-based
measurement_setup: HiBiT assay, HEK293, 18-24 hr incubation, normalized to DMSO control; read-out: IKZF2 EC50
Decision: DC50 beneath 0.1 µM gives 1; DC50 meeting or exceeding 0.1 µM gives 0.

Dear reviewer, please state whether O=C1CCC(N2Cc3cc(CNC4CCC5(CCc6ccccc65)CC4)ccc3C2=O)C(=O)N1 (stereo not drawn) has DC50 strictly beneath 0.1 µM.
1

Dear reviewer, please state whether O=C1CCC(N2Cc3cc(CN[C@H](CO)c4ccccc4)ccc3C2=O)C(=O)N1 (stereo partly drawn) has DC50 strictly beneath 0.1 µM.
0

Dear reviewer, please state whether C[C@H](CO)NCc1ccc2c(c1)CN(C1CCC(=O)NC1=O)C2=O (stereo partly drawn) has DC50 strictly beneath 0.1 µM.
0

Dear reviewer, please state whether O=C1CCC(N2Cc3cc(CNC4CCCC(CO)C4)ccc3C2=O)C(=O)N1 (stereo not drawn) has DC50 strictly beneath 0.1 µM.
0

Dear reviewer, please state whether CO[C@@H]1CCCC[C@H]1NCc1ccc2c(c1)CN(C1CCC(=O)NC1=O)C2=O (stereo partly drawn) has DC50 strictly beneath 0.1 µM.
0

Dear reviewer, please state whether O=C1CCC(N2Cc3cc(CNC4CCOCC4)ccc3C2=O)C(=O)N1 (stereo not drawn) has DC50 strictly beneath 0.1 µM.
0

Dear reviewer, please state whether O=C1CCC(N2Cc3cc(CN[C@@H]4CCCC[C@H]4Cc4ccccc4)ccc3C2=O)C(=O)N1 (stereo partly drawn) has DC50 strictly beneath 0.1 µM.
0

Dear reviewer, please state whether O=C1CCC(N2Cc3cc(CN[C@H]4CCCc5ccccc54)ccc3C2=O)C(=O)N1 (stereo partly drawn) has DC50 strictly beneath 0.1 µM.
1

Dear reviewer, please state whether C[C@H]1CCCC[C@H]1NCc1ccc2c(c1)CN(C1CCC(=O)NC1=O)C2=O (stereo partly drawn) has DC50 strictly beneath 0.1 µM.
0

Dear reviewer, please state whether O=C1CCC(N2Cc3cc(CN[C@H](CO)Cc4ccccc4)ccc3C2=O)C(=O)N1 (stereo partly drawn) has DC50 strictly beneath 0.1 µM.
0

Dear reviewer, please state whether O=C1CCC(N2Cc3cc(CNC4CCN(C(=O)OCc5ccccc5)CC4)ccc3C2=O)C(=O)N1 (stereo not drawn) has DC50 strictly beneath 0.1 µM.
1

Dear reviewer, please state whether O=C1CCC(N2Cc3cc(CNC4CCN(C(=O)NCc5ccccc5)CC4)ccc3C2=O)C(=O)N1 (stereo not drawn) has DC50 strictly beneath 0.1 µM.
0

Dear reviewer, please state whether O=C1CCC(N2Cc3cc(CN[C@@H]4CC5CCC4CC5)ccc3C2=O)C(=O)N1 (stereo partly drawn) has DC50 strictly beneath 0.1 µM.
0

Dear reviewer, please state whether O=C1CCC(N2Cc3cc(CN[C@@H]4CCCC[C@H]4OCc4ccccc4Cl)ccc3C2=O)C(=O)N1 (stereo partly drawn) has DC50 strictly beneath 0.1 µM.
1

Dear reviewer, please state whether O=C1CCC(N2Cc3cc(CN[C@H]4CCCC[C@H]4OCc4ccccc4)ccc3C2=O)C(=O)N1 (stereo partly drawn) has DC50 strictly beneath 0.1 µM.
1

Dear reviewer, please state whether O=C1CCC(N2Cc3cc(CN[C@@H]4CCC[C@H](Cc5ccccc5)C4)ccc3C2=O)C(=O)N1 (stereo partly drawn) has DC50 strictly beneath 0.1 µM.
1

Dear reviewer, please state whether O=C1CCC(N2Cc3cc(CN[C@@H]4CCCC[C@@H]4O)ccc3C2=O)C(=O)N1 (relative stereo) has DC50 strictly beneath 0.1 µM.
0

Dear reviewer, please state whether CC(C)NCc1ccc2c(c1)CN(C1CCC(=O)NC1=O)C2=O (stereo not drawn) has DC50 strictly beneath 0.1 µM.
0

Dear reviewer, please state whether O=C1CCC(N2Cc3cc(CNC4CCCC5(CCCC5)C4)ccc3C2=O)C(=O)N1 (stereo not drawn) has DC50 strictly beneath 0.1 µM.
0

Dear reviewer, please state whether O=C1CCC(N2Cc3cc(CNC4CCCC(Cn5cccn5)C4)ccc3C2=O)C(=O)N1 (stereo not drawn) has DC50 strictly beneath 0.1 µM.
0

Dear reviewer, please state whether O=C1CCC(N2Cc3cc(CNC4CCN(c5ccccc5)CC4)ccc3C2=O)C(=O)N1 (stereo not drawn) has DC50 strictly beneath 0.1 µM.
1

Dear reviewer, please state whether O=C1CCC(N2Cc3cc(CNC4CCC5(CCCC5)CC4)ccc3C2=O)C(=O)N1 (stereo not drawn) has DC50 strictly beneath 0.1 µM.
1

Dear reviewer, please state whether C[C@H]1CC[C@H](NCc2ccc3c(c2)CN(C2CCC(=O)NC2=O)C3=O)CC1 (stereo partly drawn) has DC50 strictly beneath 0.1 µM.
0

Dear reviewer, please state whether CC1(C)C[C@]2(CC[C@H](NCc3ccc4c(c3)CN(C3CCC(=O)NC3=O)C4=O)CC2)CO1 (stereo partly drawn) has DC50 strictly beneath 0.1 µM.
0

Dear reviewer, please state whether O=C1CCC(N2Cc3cc(CNC4CCCC(C(F)(F)F)C4)ccc3C2=O)C(=O)N1 (stereo not drawn) has DC50 strictly beneath 0.1 µM.
0

Dear reviewer, please state whether O=C1CCC(N2Cc3cc(CN[C@@H]4CCCN(Cc5ccncc5)C4)ccc3C2=O)C(=O)N1 (stereo partly drawn) has DC50 strictly beneath 0.1 µM.
0

Dear reviewer, please state whether O=C1CCC(N2Cc3cc(CN[C@@H]4CCC[C@H]([C@H](O)c5ccccc5)C4)ccc3C2=O)C(=O)N1 (stereo partly drawn) has DC50 strictly beneath 0.1 µM.
0

Dear reviewer, please state whether N#C[C@H]1CC[C@H](NCc2ccc3c(c2)CN(C2CCC(=O)NC2=O)C3=O)CC1 (stereo partly drawn) has DC50 strictly beneath 0.1 µM.
0

Dear reviewer, please state whether O=C1CCC(N2Cc3cc(CN[C@@H]4CCCN(c5ccccc5)C4)ccc3C2=O)C(=O)N1 (stereo partly drawn) has DC50 strictly beneath 0.1 µM.
0

Dear reviewer, please state whether C[C@H]1CC[C@@H](NCc2ccc3c(c2)CN(C2CCC(=O)NC2=O)C3=O)CN1Cc1ccccc1 (stereo partly drawn) has DC50 strictly beneath 0.1 µM.
0

Dear reviewer, please state whether O=C1CCC(N2Cc3cc(CNC45CC(C4)C5)ccc3C2=O)C(=O)N1 (stereo not drawn) has DC50 strictly beneath 0.1 µM.
0

Dear reviewer, please state whether CC1(C)CCCC(NCc2ccc3c(c2)CN(C2CCC(=O)NC2=O)C3=O)C1 (stereo not drawn) has DC50 strictly beneath 0.1 µM.
1
